- Tested on: Wnt5a (protein binding on small-molecule microarray)
- assay explanation: Wnt5a binders on small-molecule microarray, primary screen, biophysical, 635/667 nm fluorescence (AID 1142);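 further: fluorescence read at 667 nm with signal to noise per printed feature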
- test conditions: 635 nm fluorescence, higher = more signal
Everything with composite z-score lower than 0.3 is Criterion not met; everything else, including exactly 0.3, is Criterion met.

# compound, label
data = [
    ("CC(=O)NCCCC[C@@H]1NC(=O)[C@@H]2C[C@H](C(=O)NCCCCCCN)[C@H](c3cccc(OCCO)c3)N2C1=O", "Criterion not met"),
    ("O=C1OCC=C[C@H]2OC34C=CCN(c5ccc6ccccc6c5)C(=O)[C@H]3N(CCCCCO)C(=O)[C@@H]4[C@@H]12 (some centres not stated)", "Criterion not met"),
]

Kindly determine if composite z-score recorded for C=CCC(OC(C)=O)[C@@H]1[C@@H](N(Cc2ccc(-c3cccc(C(F)(F)F)c3)o2)C(=O)Cc2ccc(OC)cc2)c2cc(OCCCO)ccc2N1C(=O)Cc1ccc2ccccc2c1 (some centres not stated) is above or exactly 0.3.
Criterion not met

Kindly determine if composite z-score recorded for COc1cc2c(cc1OC)CN(C(=O)[C@@H]1[C@H]3C(=O)O[C@H](c4ccccc4)[C@H](c4ccccc4)N3[C@H](c3ccc(O)cc3)[C@@]13C(=O)Nc1ccc(C#CCCO)cc13)CC2 is above or exactly 0.3.
Criterion met
